# test.description: Human plasma stability study (37.5° C.)
# Assay type: in vitro ADME
# study.conditions: human, plasma, t1/2 (plasma stability)
test.readout: half-life (h)

molecule: CCN(CC)CCC(=O)O[C@@H]1/C(C)=C/[C@@H](C)C(=O)C[C@@H]([C@H](C)C[C@@H]2CC[C@@H](O)[C@H](OC)C2)OC(=O)[C@@H]2CCCCN2C(=O)C(=O)[C@]2(O)O[C@@H](CC[C@H]2C)C[C@H](OC)/C(C)=C/C=C/C=C/[C@@H](C)C[C@@H](C)C(=O)[C@@H]1OC [Example 3]
readout.number: 2.5

----------
# test.description: Chemical stability study in buffers (hydrolysis half-life, HPLC)
# Format: physicochemical
# study.conditions: buffer, pH 7.4, pH 7.4, 37.5° C.; read-out: t1/2 (chemical stability) (converted)

substance.smiles: CO[C@H]1C[C@@H]2CC[C@@H](C)[C@@](O)(O2)C(=O)C(=O)N2CCCC[C@H]2C(=O)O[C@H]([C@H](C)C[C@@H]2CC[C@@H](O)[C@H](OC)C2)CC(=O)[C@H](C)/C=C(\C)[C@@H](O)[C@@H](OC)C(=O)[C@H](C)C[C@H](C)/C=C/C=C/C=C/1C
measure.unit: h
half-life: 10.2

Values compiled from patent US4650803A.
